- Test system: Acinetobacter baumannii isolates
- Assay Protocol: Antimicrobial susceptibility test, disc diffusion method (CLSI M100-S24)
- Format: cell-based
- Assay Conditions: isolate AB4; disc diffusion
For each entry below, report its Inhibition zone value.
One number for each entry, in mm.

Compound | Endpoint Unit | Inhibition zone
C[C@H]1COc2c(N3CCN(C)CC3)c(F)cc3c(=O)c(C(=O)O)cn1c23 [LEV, Levofloxacin] | mm | 30
CCN1CCN(C(=O)N[C@@H](C(=O)N[C@@H]2C(=O)N3[C@@H]2SC(C)(C)[C@@H]3C(=O)O)c2ccccc2)C(=O)C1=O [PIP, Piperacillin] | mm | 21

Query: Annotate the compound CO/N=C(\C(=O)N[C@@H]1C(=O)N2C(C(=O)[O-])=C(C[N+]3(C)CCCC3)CS[C@H]12)c1csc(N)n1 [FEP, Cefepime] with its measured Inhibition zone.
Result: 14

---

- Tested on: Acinetobacter baumannii isolates
- Assay Protocol: Antimicrobial susceptibility test, disc diffusion method (CLSI M100-S24)
- Format: cell-based
- Assay Conditions: isolate AB6; disc diffusion
Measured Metric: Inhibition zone (mm)
One number for each entry, in mm.

Known results for compounds:
Smi | Inhibition zone (mm)
CCN1CCN(C(=O)N[C@@H](C(=O)N[C@@H]2C(=O)N3[C@@H]2SC(C)(C)[C@@H]3C(=O)O)c2ccccc2)C(=O)C1=O | 18
C[C@@H](O)[C@H]1C(=O)N2C(C(=O)O)=C(SCCN=CN)C[C@H]12 | 12
CC(C)(O/N=C(\C(=O)N[C@@H]1C(=O)N2C(C(=O)[O-])=C(C[n+]3ccccc3)CS[C@H]12)c1csc(N)n1)C(=O)O | 28
NC[C@@H]1O[C@H](O[C@H]2[C@@H](O)[C@H](O[C@@H]3[C@@H](O)[C@H](N)C[C@H](N)[C@H]3O[C@H]3O[C@H](CN)[C@@H](O)[C@H](O)[C@H]3N)O[C@@H]2CO)[C@H](N)[C@@H](O)[C@@H]1O | 14

Consider the additional compound presented here.
Query: Annotate the compound C[C@H]1COc2c(N3CCN(C)CC3)c(F)cc3c(=O)c(C(=O)O)cn1c23 with its measured Inhibition zone.
Result: 21

---

- Test system: Acinetobacter baumannii isolates
- Assay Protocol: Antimicrobial susceptibility test, disc diffusion method (CLSI M100-S24)
- Format: cell-based
- Assay Conditions: isolate AB14; disc diffusion
- Description: A total of 33 non-duplicate, non-consecutive clinical isolates of Multi-Drug Resistant (MDR) Acinetobacter baumannii were collected from burn wards (“AB1-AB33”). […] The inoculum suspension was prepared by selecting three to five morphologically similar colonies from overnight growth (16-24 h of incubation) on blood agar medium. […] The suspension density was measured using a UV spectrophotometer calibrated with a 0.5 McFarland standard. […]
Measured Metric: Inhibition zone

Smi | Inhibition zone
C[C@@H](O)[C@H]1C(=O)N2C(C(=O)O)=C(SCCN=CN)C[C@H]12 | 15 mm
NCC[C@H](O)C(=O)N[C@@H]1C[C@H](N)[C@@H](O[C@H]2O[C@H](CN)[C@@H](O)[C@H](O)[C@H]2O)[C@H](O)[C@H]1O[C@H]1O[C@H](CO)[C@@H](O)[C@H](N)[C@H]1O | NZ
CC1(C)S[C@@H]2[C@H](NC(=O)[C@H](N)c3ccc(O)cc3)C(=O)N2[C@H]1C(=O)O | NZ
CO[C@@]1(NC(=O)Cc2cccs2)C(=O)N2C(C(=O)O)=C(COC(N)=O)CS[C@@H]21 | NZ
NC[C@@H]1O[C@H](O[C@H]2[C@@H](O)[C@H](O[C@@H]3[C@@H](O)[C@H](N)C[C@H](N)[C@H]3O[C@H]3O[C@H](CN)[C@@H](O)[C@H](O)[C@H]3N)O[C@@H]2CO)[C@H](N)[C@@H](O)[C@@H]1O | NZ

Consider the additional molecule presented here.
Query: Annotate the molecule C[C@H]1[C@H](NC(=O)/C(=N\OC(C)(C)C(=O)O)c2csc(N)n2)C(=O)N1S(=O)(=O)O with its measured Inhibition zone.
Result: NZ
